Test system: Vero E6
procedure-details: cell viability relative to DMSO; higher = less toxic
experimental-conditions: 72 h; 1 nM
endpoint: cell viability (%)
Report the figure in % without appending any unit label.

c1ccc(-c2ccc(CNc3nc(-c4ccccn4)nnc3-c3ccccc3)cc2)cc1; 93.1
C[C@H](C[C@H](N)C(=O)O)C(=O)O; 101
CCCc1nc(C)c2c(=O)nc(-c3cc(S(=O)(=O)N4CCN(CC)CC4)ccc3OCC)[nH]n12; 100

Entry O=C1OC(OC(=O)c2cccnc2Nc2cccc(C(F)(F)F)c2)c2ccccc21 (centres undefined) [talniflumate] , cell viability reported as 99

Entry "Clc1ccc(C(c2ccc(Cl)cc2)C(Cl)(Cl)Cl)cc1" , cell viability reported as 103

Entry "Nc1ccc(S(=O)(=O)Nc2ccc(Cl)nn2)cc1" , cell viability reported as 97.8

Entry "Nc1ccn([C@H]2CC[C@@H](CO)O2)c(=O)n1" , cell viability reported as 102

Entry "C[C@]12CC[C@H]3[C@@H](CCC4=CC(=O)CC[C@@]43C)[C@@H]1CC[C@@H]2C(=O)CO" , cell viability reported as 101

Entry "CC(=O)C1=C(O)[C@@H]2[C@H]3c4c[nH]c5cccc(c45)C[C@H]3C(C)(C)N2C1=O" , cell viability reported as 100

---

cell viability values for the molecules below.
Test system: Calu-3
procedure-details: cell viability relative to DMSO; higher = less toxic
experimental-conditions: 72 h; 10 nM
Report the figure in % without appending any unit label.

NC1=NCC2c3ccccc3Cc3ccccc3N12 (stereo not given) [epinastine]; 103
CCC(COC(=O)c1cc(OC)c(OC)c(OC)c1)(c1ccccc1)N(C)C (stereo not given) [trimebutine]; 104
O=C1OC(OC(=O)c2cccnc2Nc2cccc(C(F)(F)F)c2)c2ccccc21 (stereo not given) [talniflumate]; 100
CCCCC1(COC(=O)CCC(=O)O)C(=O)N(c2ccccc2)N(c2ccccc2)C1=O [suxibuzone]; 101

As a next step, examine the molecule that follows.
Entry CCc1ccc(/C=C/C(=O)Nc2ccc(C(C)=O)cc2)o1 [heclin] , cell viability reported as 106

---

System: Vero E6
procedure-details: cell viability relative to DMSO; higher = less toxic
experimental-conditions: 72 h; 10000 nM
endpoint: cell viability (%)
Report the figure in % without appending any unit label.

Would you please look over these solved cases?
c1ccc(N2CCN(CCCOc3ccc4c(c3)OCO4)CC2)cc1; 96
COC(=O)C(Cc1ccc(OCCn2c(=O)sc3cc(C(=O)c4ccccc4)ccc32)cc1)C(=O)OC; 85.5
CN1CCCC(n2nc(Cc3ccc(Cl)cc3)c3ccccc3c2=O)CC1 (stereo not given); 94.9
CCc1ccc(/C=C/C(=O)Nc2ccc(C(C)=O)cc2)o1; 103

As a next step, examine the molecule that follows.
Entry NC(=O)c1cc([N+](=O)[O-])cc([N+](=O)[O-])c1 [nitromide] , cell viability reported as 108

---

cell viability values for the compounds below.
System: Caco-2
procedure-details: cell viability relative to DMSO; higher = less toxic
experimental-conditions: 72 h; 10000 nM
Report the figure in % without appending any unit label.

CCCCC[C@H](O)/C=C/[C@H]1[C@H](O)CC(=O)[C@@H]1C/C=C\CCCC(=O)O [dinoprostone]; 95.2
NS(=O)(=O)Nc1ncnc(OCCOc2ncc(Br)cn2)c1-c1ccc(Br)cc1; 97
N=C(N)c1cc2ccc(OC(=O)c3cccs3)cc2s1 [BCX-1470]; 107

As a next step, examine the compound that follows.
Entry CC(O)COC[C@H]1O[C@@H]2O[C@H]3[C@H](O)[C@@H](O)[C@@H](O[C@H]4[C@H](O)[C@@H](O)[C@@H](O[C@H]5[C@H](O)[C@@H](O)[C@@H](O[C@H]6[C@H](O)[C@@H](O)[C@@H](O[C@H]7[C@H](O)[C@@H](O)[C@@H](O[C@H]8[C@H](O)[C@@H](O)[C@@H](O[C@H]1[C@H](O)[C@H]2O)O[C@@H]8COCC(C)O)O[C@@H]7COCC(C)O)O[C@@H]6COCC(C)O)O[C@@H]5COCC(C)O)O[C@@H]4COCC(C)O)O[C@@H]3COCC(C)O (stereo partly drawn) [hydroxypropyl-beta-cyclodextrin] , cell viability reported as 95.7
